melting point: recorded values
experimental endpoint: melting point

compound	experimental endpoint	measured result
COc1cc(OC)c2c(=O)[nH]c(-c3cc(C)c(OCCN4C(=O)NC(c5ccccc5)C4=O)c(C)c3)nc2c1 (stereo not drawn)	melting point	219.6 to 221.4 °C
Cc1cc(-c2nc3cc(OC(C)C)cc(OC(C)C)c3c(=O)[nH]2)cc(C)c1OCCN1CCCC1	melting point	65 to 68 °C
Cc1cc(-c2nc3ccc(CCN4CCOCC4)cc3c(=O)[nH]2)cc(C)n1	melting point	248.5 to 249.3 °C
COc1cc(OCCOCc2ccccc2)cc2nc(-c3cc(C)nc(C)c3)[nH]c(=O)c12	melting point	178 to 180 °C
Cc1cc(-c2nc3cccc(Cl)c3c(=O)[nH]2)cc(C)c1OCCN1CCCC1	melting point	179 to 180 °C
COc1cc(OC)c2c(=O)[nH]c(-c3cc(C)c(CCCN4CCCC4)c(C)c3)nc2c1	melting point	194 to 196 °C
COc1cc(OCCN2CCCC2)cc(-c2nc3cc(OC)cc(OC)c3c(=O)[nH]2)c1	melting point	159 to 160 °C
COc1cc(OC)c2c(=O)[nH]c(-c3cc(C)c(OCCCCN4CCCC4)c(C)c3)nc2c1	melting point	180 to 181 °C
COCCOc1cc(OC)c2c(=O)[nH]c(-c3cc(C)nc(C)c3)nc2c1	melting point	228.8 to 230.4 °C
